# TARGET SYSTEM: human matriptase-2 (Homo sapiens)
# Construct: The conditioned medium of HEK-MT2 cells was used as a source of matriptase-2 activity; expressed in transfected cells; host or cells: HEK-MT2 cells (conditioned medium, collected and concentrated)
# Sequence (Q8IU80 577-811 limits assumed): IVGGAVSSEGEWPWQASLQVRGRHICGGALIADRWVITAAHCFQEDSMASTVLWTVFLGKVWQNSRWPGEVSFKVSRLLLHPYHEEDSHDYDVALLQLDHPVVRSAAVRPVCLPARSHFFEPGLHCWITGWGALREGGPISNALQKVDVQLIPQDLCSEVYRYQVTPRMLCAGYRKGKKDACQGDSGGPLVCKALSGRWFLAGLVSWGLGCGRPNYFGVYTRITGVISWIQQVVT
# Sequence (Q8IU80 438-576 partner limits assumed): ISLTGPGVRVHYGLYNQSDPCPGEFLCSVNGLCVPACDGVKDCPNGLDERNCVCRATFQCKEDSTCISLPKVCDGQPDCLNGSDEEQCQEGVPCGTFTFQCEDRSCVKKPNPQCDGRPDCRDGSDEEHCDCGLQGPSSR
# EXPERIMENT SUMMARY: Human matriptase-2 inhibition, fluorogenic substrate Boc-Gln-Ala-Arg-AMC, conditioned medium of HEK-MT2 cells
# Assay type: biochemical
# CONDITION CONTEXT: screening at single inhibitor concentration of 40 µM
PARAMETER: matriptase-2 inhibitory activity in words

INSERT INTO assay_data (compound, result) VALUES
  ('O=C(Nc1nc2ccccc2c(=O)s1)c1ccc(C(=O)N2CCN(Cc3ccccc3)CC2)cc1', 'inactive'),
  ('CN1CCN(C(=O)c2ccc(C(=O)Nc3nc4ccccc4c(=O)s3)cc2)CC1', 'inactive'),
  ('COC(=O)C(Cc1ccccc1)C(=O)Nc1ccc2c(c1)OC(C)(COc1ccc(C(=N)N)cc1)CN2C (stereo not shown)', 'moderately active'),
  ('CN1CC(C)(COc2ccc(C(=N)N)cc2)Oc2cc(NC(=O)CCC(=O)O)ccc21 (stereo not shown)', 'moderately active');

Kindly review the next compound as well.
Prompt: Can you look up the measured matriptase-2 inhibitory activity in words of COc1ccc2cc(S(=O)(=O)NN(Cc3cccc(C(=N)N)c3)C(=O)N(C)C3CCCC3)ccc2c1 for me?
Response: inactive
